Procedure Text: mitochondrial membrane potential change in A549 cells, profiling panel, cell-based, JC-1 fluorescence, basal, 24 h, 100 nL (AID 1138);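 further: A549 lung adenocarcinoma cells under basal conditions with no added stimulus; test concentration not given here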
Test Settings: higher = more signal
Categories are defined by ranges of z-score, namely 1 (below -0.3), 2 (-0.3 to below 0.4), 3 (0.4 or more)

Compound	Label Class
CCC(CC)C(O)C1C=CC2C(=O)N(c3ccccc3)C(=O)C2N1Nc1ccc(C#N)cc1 (centres undefined)	2
O=C1OCC=C[C@H]2OC34C=CCN(c5ccc(Cl)cc5)C(=O)[C@H]3N(CCCCCCO)C(=O)[C@@H]4[C@@H]12 (some centres undefined)	3
CC(=O)C1=CCC(c2ccccc2)N(S(=O)(=O)c2ccc(C)cc2)C1 (centres undefined)	1
O=C1OCCC=C[C@H]2OC34C=CCN(Cc5ccccc5)C(=O)[C@H]3N(CCCO)C(=O)[C@@H]4C12 (some centres undefined)	1
O=C(OCCF)C1=CCC(c2cccc(Cl)c2)O1 (centres undefined)	2
COCCOC(=O)N1C(=O)[C@@]2(c3cc(C#CCCO)ccc31)[C@H](C(=O)NC[C@H](O)c1ccccc1)[C@H]1C(=O)O[C@H](c3ccccc3)[C@H](c3ccccc3)N1[C@@H]2c1ccc(O)cc1	1
COc1ccccc1CN1C(=O)c2ccccc2[C@@H](C(=O)NCCN2CCOCC2)[C@@H]1c1ccc(CO)cc1	3
CCOC(=O)C1=CCC(C(C)(C)C)N(S(=O)(=O)c2ccc(C)cc2)C1 (centres undefined)	2
CC(C)NC(=O)[C@@]1(Cc2ccccc2I)c2ccccc2C(=O)N(Cc2ccccc2)[C@H]1c1ccc(CO)cc1	2

* * *

Procedure Text: E. coli acrAB mutant growth effects, primary screen, E. coli filamentation inducers, strain DRC39, OD650, 48 h (AID 1179);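 further: screen aims at cell division blockers that make cells filament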
Test Settings: E. coli DRC39 delta-acrAB growth, higher = more signal, called active from +8 up or from −8 down
Short version: z-score at least 0.5 is criterion met, less is criterion not met.

Molecule	Label Class
COC(=O)c1ccc(OC)c(/C=C\CC(OC(C)=O)c2ccccc2)c1 (stereo not given)	criterion not met
O=C1O[C@@H](c2ccccc2)[C@@H](c2ccccc2)N2[C@@H](c3ccc(OCCO)cc3)[C@]3(C(=O)Nc4ccccc43)[C@@H](C(=O)Nc3nc4ccccc4s3)[C@H]12	criterion not met
CC(C)C(O)C1C=CC2C(=O)N(c3ccccc3)C(=O)C2N1Nc1ccc(C#N)cc1 (stereo not given)	criterion not met
[N-]=[N+]=NCc1ccccc1C[C@]1(C(=O)O)N=C(c2ccc(OCCCO)cc2)O[C@H]1c1ccccc1CN=[N+]=[N-]	criterion not met
CCCN1C(=O)[C@@]2(CCC(=O)OC(C)(C)C)N=C(c3ccc(OCCCO)cc3)O[C@H]2c2ccccc21	criterion not met
C=CC(=C)C1=CCO[C@@H]1[C@H]1CCCN1S(=O)(=O)c1ccccc1[N+](=O)[O-]	criterion met
C=C[C@@H](COC(C)=O)N(Cc1ccc([N+](=O)[O-])cc1)S(=O)(=O)c1ccc(Br)cc1	criterion not met
C[C@]1(C(=O)NCc2ccccc2)c2ccccc2C(=O)N(Cc2cc(F)cc(C(F)(F)F)c2)[C@H]1c1ccc(CO)cc1	criterion met
CO[C@H]1O[C@H](CO)[C@@H](OC(=O)Nc2ccc(Oc3ccccc3)cc2)[C@H](OC(=O)Nc2ccccc2)[C@H]1OC(=O)Nc1ccccc1	criterion met
COCCOC(=O)N1C(=O)[C@@]2(c3cc(C#CCNC(N)=O)ccc31)[C@H](c1ccc(O)cc1)N1[C@H](c3ccccc3)[C@H](c3ccccc3)OC(=O)[C@H]1[C@@H]2C(=O)Nc1nc2ccccc2s1	criterion met
[N-]=[N+]=NCc1ccccc1C[C@]1(C(=O)O)N=C(c2ccc(OCCCO)cc2)O[C@H]1c1ccccc1	criterion not met
C=CC[C@@H](OC(=O)Nc1ccc(OC)cc1)c1ccc(O)c2ccccc12	criterion not met
CC(C)C[C@@H]1NC(=O)[C@H]2C[C@@H](C(=O)NCCCCCCNC(=O)CS)[C@@H](c3cccc(OCCO)c3)N2C1=O	criterion met
COCCOC(=O)N1C(=O)[C@@]2(c3ccccc31)[C@H](c1ccc(O)cc1)N1[C@H](c3ccccc3)[C@H](c3ccccc3)OC(=O)[C@H]1[C@@H]2C(=O)N1CCc2cc(OC)c(OC)cc2C1	criterion met
O=C1O[C@@H](c2ccccc2)[C@@H](c2ccccc2)N2[C@@H](c3ccc(O)cc3)[C@]3(C(=O)Nc4ccc(C#CC5(O)CCCCCC5)cc43)[C@@H](C(=O)N3CCCCCCC3)[C@H]12	criterion not met
O=C1O[C@H](c2ccccc2)[C@H](c2ccccc2)N2[C@H]1[C@@H](C(=O)Nc1nc3ccccc3s1)[C@]1(C(=O)Nc3ccccc31)[C@H]2c1ccc(O)cc1	criterion not met
CCCN1C(=O)[C@]2(COC(c3ccc(OCCCO)cc3)=N2)Cc2ccccc21	criterion not met
COC(=O)[C@@]1(Cc2ccccc2N=[N+]=[N-])COC(c2ccc(OCCCO)cc2)=N1	criterion not met
COc1cc(CO)ccc1OC(C)=O	criterion met
COc1ccc(CCNC(=O)[C@@H]2c3ccccc3C(=O)N(Cc3ccc(OC(F)(F)F)cc3)[C@H]2c2ccc(CO)cc2)cc1	criterion not met
CC(C)C(=C=CC[C@H](O)c1ccccc1OCCO)C[C@H](O)c1ccccn1	criterion met
O=C1O[C@@H](c2ccccc2)[C@@H](c2ccccc2)N2[C@@H](c3ccc(OCCO)cc3)[C@]3(C(=O)Nc4ccc(C#CC5=CCCCC5)cc43)[C@@H](C(=O)O)[C@H]12	criterion not met
CCOC(=O)C1=CCC(C(C)(C)C)N(S(=O)(=O)c2ccc(C)cc2)C1 (stereo not given)	criterion not met
CCOC(=O)C[C@H]1[C@H](OC(=O)c2ccc(-c3ccccc3)cc2)[C@@H](NC(=O)c2ccc3ccccc3c2)c2cc(OCCCO)ccc2N1C(=O)Cc1ccc(OC)cc1	criterion not met
Cc1ccccc1C(O)C1C=CC2C(=O)N(C)C(=O)C2N1Nc1ccccc1 (stereo not given)	criterion not met
O=C1OCCC=C[C@H]2OC34C=CCN(Cc5ccccc5)C(=O)[C@H]3N(CCCCCO)C(=O)[C@@H]4C12 (stereo not given in full)	criterion met
C=CC[C@]1(C(=O)N2CCOCC2)N=C(c2ccc(OCCCO)cc2)O[C@H]1c1ccccc1	criterion not met
CO[C@H]1O[C@H](CO)[C@@H](OC(=O)Nc2ccc3c(c2)OCO3)[C@H](OC(=O)Nc2ccccc2)[C@H]1OC(=O)Nc1ccccc1	criterion not met
CN1C(=O)C2C=CC(C(O)c3ccccn3)N(Nc3ccccc3)C2C1=O (stereo not given)	criterion not met
CCOC(=O)C[C@H]1[C@H](OC(=O)c2ccc(C(=O)c3ccccc3)cc2)[C@@H](NC(=O)C2CCCCC2)c2cc(OCCCO)ccc2N1C(=O)c1ccccc1	criterion not met
